For each entry below, report its growth inhibition value.
assay text: NCI Yeast Anticancer Drug Screen. Data for the rad50 strain (AID 155);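 note: 0% = growth of vehicle-only cultures of the same strain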
condition context: S. cerevisiae rad50 strain growth inhibition; at 50.0 µM; stronger effect = higher value
Compounds without any hit were thinned out: in the full panel of roughly 79,000, 15% have a hit.
Give bare numbers, in %.

Cc1ccc(/C=N/NC(=O)c2ccccc2NC(=O)c2ccccc2)cc1 | 57.4
Cc1nc2cnc(N)nc2nc1C | -6.85
CCC(O)C1CCCCN1 (centres undefined) | -20.8
C=C1CC/C=C(\C)CCC2C1CC2(C)C (centres undefined) | -5.1
O=C1CC[C@@H](NC(=O)Cc2ccccc2)C(=O)N1 | -6.65
CC(C)/C=C1\CCC(CN(C)C)C1=O (centres undefined) | 30.4
CC(C)(C)C1CC[C@H]2c3c([nH]c4ccc(Br)cc34)[C@H]3C(=O)N(c4ccccc4)C(=O)[C@H]3[C@H]2C1 (some centres undefined) | 18.4
O=C(O)C1CC2(CCC1c1ccccc1)SCCS2 (centres undefined) | 6.7

Problem: GET /values?readout=growth inhibition&item= C=C1C(=O)O[C@H]2C3OC3(C)CC/C=C(/C(=O)OC)[C@@H](OC(C)=O)[C@H](OC(=O)C3(C)OC3C)[C@H]12 (some centres undefined)
Solution: 12.6

====

assay text: NCI Yeast Anticancer Drug Screen. Data for the rad50 strain (AID 155);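 note: 0% = growth of vehicle-only cultures of the same strain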
condition context: S. cerevisiae rad50 strain growth inhibition; at 50.0 µM; stronger effect = higher value
Compounds without any hit were thinned out: in the full panel of roughly 79,000, 15% have a hit.
quantity kind: growth inhibition (%)
One number for each entry, in %.

C#[N+]CCOP(=O)(OCC1OC(n2cc(C)c(=O)[nH]c2=O)CC1N=[N+]=[N-])O[C@H]1CC[C@@]2(C)C(=CC[C@H]3[C@@H]4CC[C@H](C(C)/C=C/C(CC)C(C)C)[C@@]4(C)CC[C@@H]32)C1 (stereo partly drawn) | -32.3
CCC(C)N=Cc1ccccc1O.CCC(C)N=Cc1ccccc1O.[Cu] (stereo not drawn) | 33.7

Record growth inhibition for all entries; do not skip any.
1. CSc1nc(NC2OC(COC(C)=O)C(OC(C)=O)C(OC(C)=O)C2OC(C)=O)c(C(=O)CCl)c(=O)n1C (stereo not drawn)
2. NC(=O)COc1c(Br)cc(Br)cc1Br
3. NCCCCCOCCCCCN
4. O=C1Cc2nc(CO)c(CO)c(CO)c2CO1
5. CCC(O)C(C)[N+](=O)[O-] (stereo not drawn)
6. CC12CC(C/C1=N/O)C(C)(C)C2 (stereo not drawn)

Solution:
1: 6.8; 2: -1.55; 3: 3.4; 4: -43; 5: 28; 6: -4.3

Record growth inhibition for all entries; do not skip any.
1. COc1cc(C[S+]2CCCC2)c(SC)cc1C[S+]1CCCC1
2. Cc1ccc(S(=O)(=O)OCC2C(COS(=O)(=O)c3ccc(C)cc3)C3C=CC2C32CC2)cc1 (stereo not drawn)
3. CC(=O)c1ccc(N2C(=O)C/C(=C/c3ccccc3O)C2=O)cc1

Solution:
[25.4, -5.5, 16.1]

Record growth inhibition for all entries; do not skip any.
1. Cc1oc(C)c2c(N=Nc3ccc([N+](=O)[O-])cc3[N+](=O)[O-])c3ccccc3c(O)c12
2. CCN(CC)CCOc1ccc(N2Cc3cc(OC)c(OC)cc3C2=O)cc1

Solution:
1. 25
2. -11.9

====

assay text: NCI Yeast Anticancer Drug Screen. Data for the rad50 strain (AID 155);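 note: 0% = growth of vehicle-only cultures of the same strain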
condition context: S. cerevisiae rad50 strain growth inhibition; at 50.0 µM; stronger effect = higher value
Method: Growth inhibition of yeast strains with defined genetic alterations is measured as a screen for potential anti-cancer activity. Selected strains with alterations in DNA damage repair or cell cycle control were exposed to compounds and growth inhibition was measured relative to vehicle treated controls. The strain used in this assay is rad50
About 79,000 compounds went through this panel and 15% of them were active in at least one assay; those are over-represented in the sample as a whole. Calls of active or inactive are those of the source. No stated cut-off is given here; in the data, active means growth inhibition above about 70%; inactive means the rest.
quantity kind: growth inhibition

Please review the following examples before continuing.
CC(=O)C(Cc1ccccc1)(Cc1ccccc1)C(C)=O | 3.3% (inactive)
CN(C)Cc1ccccc1COC(=O)/C=C/c1ccccc1 | 11.3% (inactive)

Record growth inhibition for all entries; do not skip any.
1. CC(C)(C)OC(=O)CNC(=O)C(CSC(c1ccccc1)c1ccccc1)NC(=O)CNC(=O)C(CCCCNC(=O)OCc1ccccc1)NC(=O)CNC(=O)C(CSC(c1ccccc1)(c1ccccc1)c1ccccc1)NC(=O)OCc1ccccc1 (stereo not given)
2. COc1ccc(N=Nc2c(C)nc(N)nc2C)cc1
3. N#CCCSC(=S)C1CCCCC1=N (stereo not given)
4. c1cncc(C2c3[nH]c4ccccc4c3CCN2CCN2CCCCC2)c1 (stereo not given)
5. CN(C)c1ccc(NN=C2SC(=Nc3ccccc3)C(=Nc3ccccc3)S2)cc1
6. CC1=CC(C)(C)NC(=S)N1C1CCCCC1
7. CC(=O)Nc1cc2c(s1)CCC1CC(=O)NN=C21 (stereo not given)

Solution:
1: 34.8% (inactive); 2: 2.1% (inactive); 3: -5.3% (inactive); 4: -32.8% (inactive); 5: 41.5% (inactive); 6: 9.75% (inactive); 7: -12.4% (inactive)

Record growth inhibition for all entries; do not skip any.
1. COc1ccc(C(=O)N=C(N)n2nc(C)cc2C)cc1
2. O=C(ON(Cc1ccccc1)Cc1ccccc1)c1ccccc1
3. CC1CCOC(c2ccc(O)cc2)O1 (stereo not given)
4. CCNC1=C(Cl)C(=O)c2ccccc2C1=O
5. Nc1ccc(C(C(=O)O)c2ccccc2)cc1 (stereo not given)

Solution:
-37.8% (inactive)
-7.8% (inactive)
-4.05% (inactive)
-11.9% (inactive)
10.4% (inactive)

Problem: GET /values?readout=growth inhibition&item= `NCCS/C=C\C(=O)OCc1ccc(Br)cc1`
Solution: 31.6% (inactive)

====

assay text: NCI Yeast Anticancer Drug Screen. Data for the mlh1 rad18 strain (AID 175)
condition context: S. cerevisiae mlh1 rad18 strain growth inhibition; at 50.0 µM; stronger effect = higher value
About 79,000 compounds went through this panel and 15% of them were active in at least one assay; those are over-represented in the sample as a whole.
quantity kind: growth inhibition (%)
Give bare numbers, in %.

O=CNc1ncccn1 | -7.75

Record growth inhibition for all entries; do not skip any.
1. O=C(CCCC(=O)N/N=C/c1ccc(Cl)cc1)N/N=C\c1ccc(Cl)cc1
2. COc1cc([N+](=O)[O-])cc(C=O)c1O
3. CCN(CC)CCN(C(=Nc1ccccc1)N1CCCCC1)c1ccccc1
4. CC(C)OC(=O)CC1CCCCC1
5. COc1cc(/C=C/c2ccc([N+](=O)[O-])cc2[N+](=O)[O-])ccc1O
6. CC(=O)NC(CCCNC(=O)N(CCCl)N=O)C(=O)NCc1ccccc1 (configuration not stated)

Solution:
1. -16.9
2. 11.7
3. 19.4
4. 3.15
5. 25.9
6. -13.6

====

assay text: NCI Yeast Anticancer Drug Screen. Data for the rad50 strain (AID 155);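 note: 0% = growth of vehicle-only cultures of the same strain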
condition context: S. cerevisiae rad50 strain growth inhibition; at 50.0 µM; stronger effect = higher value
This is part of a sample that, as a whole, favours compounds with a hit. Of some 79,000 tested, about 15% had one in any assay.
For each entry below, report its growth inhibition value.
Answers are plain numbers, in %.

Please review the following examples before continuing.
O=C1C=CC(=O)c2c(Cl)ccc(O)c21 | -16.9
CCCCCCCCCCCCCCCCC1=CC(=O)C=C(OC)C1=O | 13.4
CCOc1ccc(C=O)cc1OCC | 0.15
CN(c1ccccc1)c1nc(=[N+](C)C)ss1 | 35.4
CC[N+](C)(CC)CCl | -49.2

Record growth inhibition for all entries; do not skip any.
1. CCC(CC)(CC#N)C1CCCCC1
2. S=c1[nH]c2ccccc2n2cccc12
3. CCN(CC)c1nc(=O)c(C(=O)C(C)(C)C)c(C(C)(C)C)o1
4. O=C(CCn1[nH]c(=O)c(Cl)c(Cl)c1=O)NO

Solution:
-0.8
14.9
-14.9
-21.3

Record growth inhibition for all entries; do not skip any.
1. Cc1cc(NC(=O)NCCCCCCNC(=O)Nc2cc(C)on2)no1
2. CC(C)CC1=C(O)c2ccccc2C(=O)C1=O
3. Cn1nc(-c2ccccc2)c(C(=O)/C=C/c2ccc(Cl)cc2)c(N2CCCCC2)c1=O
4. N#CC1CCN(Cc2ccccc2)C(C#N)C1 (stereo not drawn)

Solution:
[4.95, 11, -30.9, -9.05]

Record growth inhibition for all entries; do not skip any.
1. CC(=O)O[C@H]1CC(C)(C)C(=C=C/C(C)=C/C=C/C=C/C=C(C)/C=C2C=C(/C=C/[C@@]34O[C@]3(C)C[C@@H](O)CC4(C)C)C(=O)O/2)[C@](C)(O)C1
2. CC(=O)Nc1cc(OC(C)=O)nc2c1CCC2
3. CCNC1(C(N)=O)CCN(Cc2ccccc2)CC1
4. Cc1cccc(Cl)c1O

Solution:
1: 9.55; 2: 14.2; 3: -14.6; 4: 29.8
